Tested on: LOX IMVI melanoma
Test: NCI-60 one-dose screen, 48 h
Conditions: 10 µM unless noted
Description: Growth inhibition of the LOX IMVI human tumor cell line is measured as a screen for anti-cancer activity. Cells are grown in 96 well plates and exposed to the test compound for 48 hours. Compounds are tested at a single concentration, which is 10^-5 M for most compounds. The reported endpoint is percent growth (GI% or GIPRCNT), where numbers from 0 - 100% represent growth inhibition, and numbers from -100% - 0 represent cell death. For example, a value of 40 represents 60% growth inhibition. […]
This is part of a sample that, as a whole, favours compounds with a hit. Of some 83,000 tested, about 20% had one in any assay. The source made the active and inactive calls. The calls were made as follows: active = growth percent below 10; inactive = the rest.
Return exactly one item of label 1 = active, label 0 = inactive

Sample answers from the record:
compoundstructure=COC(=O)c1c2c(c(C)[n+]([O-])c1C)C(=O)C=C(NCc1ccc(Cl)cc1)C2=O assignedlabel="label 1"
compoundstructure=COc1cc(/C=C2\C(=O)Nc3ccccc32)cc(OC)c1O assignedlabel="label 0"
compoundstructure=Cc1nc2cc(Nc3nc(N4CCOCC4)nc(N4CCN(C)CC4)n3)ccc2n1Cc1ccccc1 assignedlabel="label 0"

For `CN1CCn2c(c(Sc3ccc(C(=O)NO)cc3)c3ccccc32)C1=O` , what call appears in the results of this test?
label 1

Another compound: `CCCCCCCCCCCC(=O)[O][Sn]([CH2]CCC)([CH2]CCC)[CH2]CCC`
label 1

* * *

This section presents molecules with their documented growth values.
Test system: A498 renal
Assay: NCI-60 one-dose screen, 48 h (100 = growth as untreated, 0 = no growth, -100 = all killed)
Settings: 10 µM unless noted
Description: Growth inhibition of the A498 human tumor cell line is measured as a screen for anti-cancer activity. Cells are grown in 96 well plates and exposed to the test compound for 48 hours. Compounds are tested at a single concentration, which is 10^-5 M for most compounds. The reported endpoint is percent growth (GI% or GIPRCNT), where numbers from 0 - 100% represent growth inhibition, and numbers from -100% - 0 represent cell death. For example, a value of 40 represents 60% growth inhibition. […]
The panel holds about 83,000 compounds, 20% with a hit somewhere; the sample as a whole holds those more often.
Express your answer in %, writing the number without its unit.

In the examples that follow, each entry is paired with its recorded growth.
molecule=c1ccc2cc(-c3n(Cc4ccc5ccccc5n4)c4ccccc4[n+]3Cc3ccc4ccccc4n3)ccc2c1 readouttype=growth observedmeasurement=-22.3
molecule=C[C@@H](Oc1cc(-c2cnn(C3CC4(CCNCC4)C3)c2)cnc1N)c1c(F)ccc(Cl)c1Cl readouttype=growth observedmeasurement=-6.38

Need growth of `FC(F)(F)c1cc(CNc2nc(Cl)ncc2Br)cc(C(F)(F)F)c1` , thanks.
80.2

Another molecule: CC1=CN2C(=NC3=C(CCCC/C3=C\c3ccccc3)C2c2ccccc2)S1 (centres undefined)
117

Another molecule: `Oc1ccccc1/C=N/Nc1nc2ccccc2s1`
78.3

* * *

This section presents compounds with their documented growth values.
test system: M14 melanoma; test: NCI-60 one-dose screen, 48 h (100 = growth as untreated, 0 = no growth, -100 = all killed); settings: 10 µM unless noted
The panel holds about 83,000 compounds, 20% with a hit somewhere; the sample as a whole holds those more often. Activity calls are given as the source filed them. Rule for the calls: active = growth percent below 10; inactive = the rest.

In the examples that follow, each entry is paired with its recorded growth.
compound="O=C1CN2CCC1C/C2=C\\c1ccnc2c(Cl)cccc12 (stereo unspecified)" readouttype=growth observedmeasurement="103% (inactive)"
compound=Cc1cc(C)c(S(=O)O)c(C)c1 readouttype=growth observedmeasurement="116% (inactive)"
compound="C=C(C)COC(=O)c1ccccc1C(=O)OCC1(C)CO1 (stereo unspecified)" readouttype=growth observedmeasurement="96.5% (inactive)"
compound=COc1cc(C(F)(F)F)ccc1-c1cc(-c2ccc(F)cc2)n[nH]1 readouttype=growth observedmeasurement="93.1% (inactive)"
compound=CN1CCC(OC2c3ccccc3CCc3ccccc32)CC1 readouttype=growth observedmeasurement="103% (inactive)"

Given the entry `CCCCCCCCCCCCCCCC[N+]1(C)CCOCC1` , what growth was observed with M14 melanoma?
1.49% (active)

Another compound: COc1cc(/C=N/NC(=O)c2cnn3c2NC(c2ccccc2)C3)cc(OC)c1OC (stereo unspecified)
50.3% (inactive)

Another compound: `CC1=C(C/C=C(\C)CCC[C@H](C)CCC[C@H](C)CCCC(C)C)C(=O)c2ccccc2C1=O`
104% (inactive)
